Biological target: UniProt P20309
Experiment: M3 Receptor radioligand binding assay
Details: M3 Receptor radioligand binding assay; read-out: M3 IC50 activity
Protocol: M3 Receptor Radioligand Binding Assay: The assay is carried out in 96-well polypropylene plates in a volume of 250 μl. […] The final assay concentration of DMSO is 0.5% (v/v). […] The plates are dried before addition of 50 μl of microscint-0, sealed then read in a Trilux Microbeta scintillation counter. IC50 values are determined from competition curves using a non-linear curve fitting program. Ki values are calculated from IC50 values by the Cheng and Prusoff equation.
Measured IC50, listed per entry for reference.

molecule	IC50
COc1ccc(C(Cc2c(Cl)c[n+]([O-])cc2Cl)OC(=O)c2ccc(CNC(C(=O)OCC3CCN(C)CC3)c3ccccc3)s2)cc1OC1CCCC1 (stereo not shown) [Example 6]	1 to 10 nM
COc1ccc([C@H](Cc2c(Cl)c[n+]([O-])cc2Cl)OC(=O)c2ccc(CNC(C(=O)OC[C@H]3CCCCN3C)c3ccccc3)s2)cc1OC (stereo partly shown)	10 to 100 nM
COc1ccc([C@H](Cc2c(Cl)c[n+]([O-])cc2Cl)OC(=O)c2ccc(CNC(C(=O)OCC3CN(C)C3)c3ccccc3)s2)cc1OC (stereo partly shown)	1 to 10 nM
COCCOc1cc([C@H](Cc2c(Cl)c[n+]([O-])cc2Cl)OC(=O)c2ccc(CNC(C(=O)OCC3CCN(C)CC3)c3ccccc3)s2)ccc1OC(F)F (stereo partly shown)	1 to 10 nM

---

target: Human recombinant PDE4B2 (Homo sapiens (Human)); experiment: PDE4B2 HTRF assay; assay type: biochemical
pIC50: −log10 of the molar value.
Below, each entry is listed alongside its reported pIC50.
quantity.kind: pIC50

molecule	assay.value
COc1ccc([C@H](Cc2c(Cl)c[n+]([O-])cc2Cl)OC(=O)c2ccc(CNC(C(=O)OCC3C[C@H]4CC[C@@H](C3)N4C)c3ccccc3)s2)cc1OC (some centres unmarked) [Example 114]	8.00 to 9.00
COc1ccc([C@H](Cc2c(Cl)c[n+]([O-])cc2Cl)OC(=O)c2ccc(CNCC(O)(C(=O)OCC3CCN(C)CC3)c3cccs3)s2)cc1OC (some centres unmarked) [Example 1]	8.00 to 9.00

---

target: Human recombinant PDE4B2 (Homo sapiens (Human), UniProt Q07343); assay: PDE4B2 HTRF assay; format: biochemical; details: read-out: PDE4B2 IC50 activity
Sequence (Q07343 other isoform, or with tags, fused parts or gaps): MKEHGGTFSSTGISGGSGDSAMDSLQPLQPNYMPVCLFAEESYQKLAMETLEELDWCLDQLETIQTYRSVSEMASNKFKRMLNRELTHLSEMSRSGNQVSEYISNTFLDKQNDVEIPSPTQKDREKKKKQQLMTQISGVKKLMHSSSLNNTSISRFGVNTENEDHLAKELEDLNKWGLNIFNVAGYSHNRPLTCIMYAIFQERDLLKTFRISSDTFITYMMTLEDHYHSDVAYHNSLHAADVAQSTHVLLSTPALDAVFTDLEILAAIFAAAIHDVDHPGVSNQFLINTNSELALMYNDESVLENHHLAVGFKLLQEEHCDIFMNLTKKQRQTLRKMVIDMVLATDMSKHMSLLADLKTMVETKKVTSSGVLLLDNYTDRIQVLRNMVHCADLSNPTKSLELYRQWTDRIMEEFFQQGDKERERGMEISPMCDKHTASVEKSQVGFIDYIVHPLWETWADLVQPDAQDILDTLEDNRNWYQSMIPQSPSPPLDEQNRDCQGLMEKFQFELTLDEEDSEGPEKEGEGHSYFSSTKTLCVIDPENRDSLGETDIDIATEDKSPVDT
pIC50: −log10 of the molar value.

molecule	pIC50
COc1ccc([C@H](Cc2c(Cl)c[n+]([O-])cc2Cl)OC(=O)c2ccc(CNC(C(=O)OCC3CCN(C)CC3)C3CCCCC3)s2)cc1OC (stereo partly shown) [Example 9]	8.00 to 9.00

---

molecular target: Human M3 receptor membranes (Homo sapiens (Human), UniProt P20309); assay: M3 Receptor radioligand binding assay; details: M3 Receptor radioligand binding assay; read-out: M3 IC50 activity
Sequence (P20309 whole entry): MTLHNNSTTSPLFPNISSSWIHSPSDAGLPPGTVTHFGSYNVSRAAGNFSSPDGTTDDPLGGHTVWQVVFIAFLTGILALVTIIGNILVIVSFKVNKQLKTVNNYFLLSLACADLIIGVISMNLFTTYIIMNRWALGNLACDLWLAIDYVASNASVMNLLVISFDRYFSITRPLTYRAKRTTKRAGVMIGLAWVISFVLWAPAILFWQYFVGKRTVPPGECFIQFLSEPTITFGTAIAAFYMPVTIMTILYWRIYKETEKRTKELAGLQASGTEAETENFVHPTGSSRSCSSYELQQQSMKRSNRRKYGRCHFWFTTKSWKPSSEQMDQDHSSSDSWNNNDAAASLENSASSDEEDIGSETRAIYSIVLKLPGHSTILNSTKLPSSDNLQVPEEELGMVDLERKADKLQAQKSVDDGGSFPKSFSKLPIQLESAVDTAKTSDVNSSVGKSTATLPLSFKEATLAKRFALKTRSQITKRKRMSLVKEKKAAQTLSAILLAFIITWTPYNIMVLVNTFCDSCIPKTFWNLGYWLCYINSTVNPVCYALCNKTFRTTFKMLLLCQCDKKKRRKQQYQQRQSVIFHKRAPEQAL
pIC50: −log10 of the molar value.
Each entry below carries its reported pIC50.
quantity.kind: pIC50

>>> df
                                   compound  quantity_kind   assay_value
0  COc1ccc([C@H](Cc2c(Cl)c[n+]([O-])cc2Cl)OC(=O)c2ccc(CNC(C(=O)OC[C@@H]3CCN(C)C3)c3ccccc3)s2)cc1OC (stereo partly drawn)          pIC50  8.00 to 9.00
1  COc1ccc([C@H](Cc2c(Cl)c[n+]([O-])cc2Cl)OC(=O)c2ccc(CNCC(C(=O)OCC3CCN(C)CC3)c3ccccc3)s2)cc1OC (stereo partly drawn)          pIC50  7.00 to 8.00
2  COc1ccc([C@H](Cc2c(Cl)c[n+]([O-])cc2Cl)OC(=O)c2ccc(CNC(C(=O)OC[C@H]3CCCN(C)C3)c3ccccc3)s2)cc1OC (stereo partly drawn)          pIC50  8.00 to 9.00

---

target: UniProtKB P20309; test: M3 Receptor radioligand binding assay
The molecules listed here are annotated with their IC50.

molecule	IC50
COc1ccc([C@H](Cc2c(Cl)c[n+]([O-])cc2Cl)OC(=O)c2ccc(CNCC(O)(C(=O)OCC3CCN(C)CC3)c3cccs3)s2)cc1OC (some centres unmarked)	10 to 100 nM
COc1ccc([C@H](Cc2c(Cl)c[n+]([O-])cc2Cl)OC(=O)c2ccc(CNC(C(=O)OCC3C[C@H]4CC[C@@H](C3)N4C)c3ccccc3)s2)cc1OC (some centres unmarked)	10 to 100 nM

---

Overview of reported IC50 across a group of molecules:
Molecular target: Human M3 receptor membranes (Homo sapiens (Human))
Experiment: M3 Receptor radioligand binding assay
Settings: M3 Receptor radioligand binding assay; read-out: M3 IC50 activity
Procedure: M3 Receptor Radioligand Binding Assay: The assay is carried out in 96-well polypropylene plates in a volume of 250 μl. […] The final assay concentration of DMSO is 0.5% (v/v). […] The plates are dried before addition of 50 μl of microscint-0, sealed then read in a Trilux Microbeta scintillation counter. IC50 values are determined from competition curves using a non-linear curve fitting program. Ki values are calculated from IC50 values by the Cheng and Prusoff equation.

molecule	system	IC50
COc1ccc([C@H](Cc2c(Cl)c[n+]([O-])cc2Cl)OC(=O)c2ccc(CNC(C)(C(=O)OCC3CCN(C)CC3)c3ccccc3)s2)cc1OC (some centres unmarked)	Human M3 receptor membranes (Homo sapiens (Human))	0.001 to 0.01 µM
CN1CCC(COC(=O)C(NCc2ccc(C(=O)O[C@@H](Cc3c(Cl)c[n+]([O-])cc3Cl)c3ccc(OC(F)F)c(OCC4CC4)c3)s2)c2cccc(O)c2)CC1 (mixture of isomers)	Human M3 receptor membranes (Homo sapiens (Human))	0.001 to 0.01 µM
COc1ccc([C@H](Cc2c(Cl)c[n+]([O-])cc2Cl)OC(=O)c2ccc(CNC(C(=O)OC[C@@H]3CCCN(C)C3)c3ccccc3)s2)cc1OC (some centres unmarked) [Example 14]	Human M3 receptor membranes (Homo sapiens (Human))	0.001 to 0.01 µM
COc1ccc([C@H](Cc2c(Cl)c[n+]([O-])cc2Cl)OC(=O)c2ccc(CNC(C(=O)OC[C@H]3CN(C)CCN3C)c3ccccc3)s2)cc1OC (some centres unmarked)	Human M3 receptor membranes (Homo sapiens (Human))	0.01 to 0.1 µM
COc1ccc([C@H](Cc2c(Cl)c[n+]([O-])cc2Cl)OC(=O)c2ccc(CNC(C(=O)OC[C@@H]3CCCN(C)C3)c3ccccc3)s2)cc1OC (some centres unmarked) [Example 49]	Human M3 receptor membranes (Homo sapiens (Human))	0.01 to 0.1 µM
COc1ccc([C@H](Cc2c(Cl)c[n+]([O-])cc2Cl)OC(=O)c2ccc(CNC(CO)(C(=O)OCC34CCN(CC3)CC4)c3ccccc3)s2)cc1OC (some centres unmarked)	Human M3 receptor membranes (Homo sapiens (Human))	< 0.001 µM
COc1ccc([C@H](Cc2c(Cl)c[n+]([O-])cc2Cl)OC(=O)c2ccc(CNC(C(=O)OC[C@H]3CCN(C)C3)c3ccccc3)s2)cc1OC (some centres unmarked) [Example 78]	Human M3 receptor membranes (Homo sapiens (Human))	0.001 to 0.01 µM
COc1ccc([C@H](Cc2c(Cl)c[n+]([O-])cc2Cl)OC(=O)c2ccc(CNC(C(=O)OC[C@H]3CCN(C)C3)c3ccccc3)s2)cc1OC (some centres unmarked) [Example 18]	Human M3 receptor membranes (Homo sapiens (Human))	0.001 to 0.01 µM
COc1ccc([C@H](Cc2c(Cl)c[n+]([O-])cc2Cl)OC(=O)c2ccc(CNC(C(=O)OCC3(C)CCN(C)CC3)c3ccccc3)s2)cc1OC (mixture of isomers)	Human M3 receptor membranes (Homo sapiens (Human))	0.01 to 0.1 µM
COc1ccc(C(Cc2c(Cl)c[n+]([O-])cc2Cl)OC(=O)c2ccc(CNC(C(=O)OCC3CCN(C)CC3)c3cccc(O)c3)s2)cc1OCC1CC1 (centres unmarked) [Example 48]	Human M3 receptor membranes (Homo sapiens (Human))	0.01 to 0.1 µM
COc1ccc([C@H](Cc2c(Cl)c[n+]([O-])cc2Cl)OC(=O)c2ccc(CNC(C(=O)OC[C@@H]3CCCN(C)C3)c3ccccc3)s2)cc1OC (some centres unmarked) [Example 50]	Human M3 receptor membranes (Homo sapiens (Human))	0.001 to 0.01 µM

---

molecular target: Human recombinant PDE4B2 (Homo sapiens (Human), UniProt Q07343); experiment: PDE4B2 HTRF assay; type: biochemical; settings: PDE4B2 HTRF assay; read-out: PDE4B2 IC50 activity

molecule	IC50
COc1ccc([C@H](Cc2c(Cl)c[n+]([O-])cc2Cl)OC(=O)c2ccc(CNC(C(=O)OCCN3CCCC3)c3ccccc3)s2)cc1OC (some centres unmarked) [Example 21]	1 to 10 nM
COc1ccc([C@H](Cc2c(Cl)c[n+]([O-])cc2Cl)OC(=O)c2ccc(CNC(C(=O)OC[C@@H]3CN(C)CCN3C)c3ccccc3)s2)cc1OC (some centres unmarked) [Example 32]	1 to 10 nM
COc1ccc([C@H](Cc2c(Cl)c[n+]([O-])cc2Cl)OC(=O)c2ccc(CNC(CO)(C(=O)OCC34CCN(CC3)CC4)c3ccccc3)s2)cc1OC (some centres unmarked) [Example 117]	1 to 10 nM
COc1ccc([C@H](Cc2c(Cl)c[n+]([O-])cc2Cl)OC(=O)c2ccc(CNC(C(=O)OCC3CN(C)C3)c3ccccc3)s2)cc1OC (some centres unmarked) [Example 25]	1 to 10 nM
COc1ccc([C@H](Cc2c(Cl)c[n+]([O-])cc2Cl)OC(=O)c2ccc(CNC(C(=O)OC[C@H]3CCN(C)C3)c3ccccc3)s2)cc1OC (some centres unmarked) [Example 18]	1 to 10 nM
COc1ccc([C@H](Cc2c(Cl)c[n+]([O-])cc2Cl)OC(=O)c2ccc(CNC(C(=O)OCC3CCCCN3C)c3ccccc3)s2)cc1OC (some centres unmarked) [Example 31]	1 to 10 nM
COc1ccc([C@H](Cc2c(Cl)c[n+]([O-])cc2Cl)OC(=O)c2ccc(CNC(CO)(C(=O)OC[C@@H]3CCN(C)C3)c3ccccc3)s2)cc1OC (some centres unmarked) [Example 116]	1 to 10 nM
COCCOc1cc([C@H](Cc2c(Cl)c[n+]([O-])cc2Cl)OC(=O)c2ccc(CNC(C(=O)OCC3CCN(C)CC3)c3ccccc3)s2)ccc1OC(F)F (some centres unmarked) [Example 113]	1 to 10 nM
COc1ccc([C@H](Cc2c(Cl)c[n+]([O-])cc2Cl)OC(=O)c2ccc(CNC(C(=O)OCC3CCN(C)CC3)c3ccccc3OC)s2)cc1OC (some centres unmarked) [Example 118]	< 1 nM
COc1ccc(C(Cc2c(Cl)c[n+]([O-])cc2Cl)OC(=O)c2ccc(CNC(C(=O)OCC3CCN(C)CC3)c3cccc(O)c3)s2)cc1OCC1CC1 (centres unmarked) [Example 47]	1 to 10 nM
COc1ccc([C@H](Cc2c(Cl)c[n+]([O-])cc2Cl)OC(=O)c2ccc(CNC(C(=O)OCC3(F)CCN(C)CC3)c3ccccc3)s2)cc1OC (some centres unmarked) [Example 3]	1 to 10 nM
COc1ccc([C@H](Cc2c(Cl)c[n+]([O-])cc2Cl)OC(=O)c2ccc(CNC(C(=O)OC[C@@H]3CCN(C)C3)c3ccccc3)s2)cc1OC (some centres unmarked) [Example 17]	1 to 10 nM
COc1ccc([C@H](Cc2c(Cl)c[n+]([O-])cc2Cl)OC(=O)c2ccc(CNC(C(=O)OC[C@H]3CN(C)CCN3C)c3ccccc3)s2)cc1OC (some centres unmarked) [Example 29]	1 to 10 nM
COc1ccc([C@H](Cc2c(Cl)c[n+]([O-])cc2Cl)OC(=O)c2ccc(CNC(C(=O)OCC3CCN(C(C)C)CC3)c3ccccc3)s2)cc1OC (single isomer, unassigned) [Example 42]	1 to 10 nM
COc1ccc([C@H](Cc2c(Cl)c[n+]([O-])cc2Cl)OC(=O)c2ccc(CNC(CO)(C(=O)OCC3CCN(C)CC3)c3cccs3)s2)cc1OC (mixture of isomers) [Example 37]	< 1 nM
CCN1CCC(COC(=O)C(NCc2ccc(C(=O)O[C@@H](Cc3c(Cl)c[n+]([O-])cc3Cl)c3ccc(OC)c(OC)c3)s2)c2ccccc2)CC1 (some centres unmarked) [Example 19]	< 1 nM
CCOc1cc(C(Cc2c(Cl)c[n+]([O-])cc2Cl)OC(=O)c2ccc(CNC(C(=O)OCC3CCN(C)CC3)c3cccc(O)c3)s2)ccc1OC (centres unmarked) [Example 120]	< 1 nM
COc1ccc([C@H](Cc2c(Cl)c[n+]([O-])cc2Cl)OC(=O)c2ccc(CNC(C(=O)OC[C@@H]3CCCN(C)C3)c3ccccc3)s2)cc1OC (some centres unmarked) [Example 14]	1 to 10 nM
COc1ccc([C@H](Cc2c(Cl)c[n+]([O-])cc2Cl)OC(=O)c2ccc(CNC(C(=O)OC[C@@H]3CCCN(C)C3)c3ccccc3)s2)cc1OC (some centres unmarked) [Example 49]	1 to 10 nM
COc1ccc([C@H](Cc2c(Cl)c[n+]([O-])cc2Cl)OC(=O)c2ccc(CNCC(C(=O)OCC3CCN(C)CC3)c3ccccc3)s2)cc1OC (some centres unmarked) [Example 7]	1 to 10 nM
COc1ccc(C(Cc2c(Cl)c[n+]([O-])cc2Cl)OC(=O)c2ccc(CNC(C(=O)OCC3CCN(C)CC3)c3ccccc3)s2)cc1OC1CCCC1 (centres unmarked) [Example 5]	1 to 10 nM
CN1CCC(COC(=O)C(NCc2ccc(C(=O)O[C@@H](Cc3c(Cl)c[n+]([O-])cc3Cl)c3ccc(OC(F)F)c(OCC4CC4)c3)s2)c2cccc(O)c2)CC1 (mixture of isomers) [Example 46]	1 to 10 nM
COc1ccc([C@H](Cc2c(Cl)c[n+]([O-])cc2Cl)OC(=O)c2ccc(CNC(C(=O)OCC3(C)CCN(C)CC3)c3ccccc3)s2)cc1OC (mixture of isomers) [Example 2]	1 to 10 nM

Value source: patent US9636336B2
